Measured pIC50 of individual entries
Biological target: Isocitrate lyase (Candida albicans)
Sequence (Q9P8Q7 whole entry): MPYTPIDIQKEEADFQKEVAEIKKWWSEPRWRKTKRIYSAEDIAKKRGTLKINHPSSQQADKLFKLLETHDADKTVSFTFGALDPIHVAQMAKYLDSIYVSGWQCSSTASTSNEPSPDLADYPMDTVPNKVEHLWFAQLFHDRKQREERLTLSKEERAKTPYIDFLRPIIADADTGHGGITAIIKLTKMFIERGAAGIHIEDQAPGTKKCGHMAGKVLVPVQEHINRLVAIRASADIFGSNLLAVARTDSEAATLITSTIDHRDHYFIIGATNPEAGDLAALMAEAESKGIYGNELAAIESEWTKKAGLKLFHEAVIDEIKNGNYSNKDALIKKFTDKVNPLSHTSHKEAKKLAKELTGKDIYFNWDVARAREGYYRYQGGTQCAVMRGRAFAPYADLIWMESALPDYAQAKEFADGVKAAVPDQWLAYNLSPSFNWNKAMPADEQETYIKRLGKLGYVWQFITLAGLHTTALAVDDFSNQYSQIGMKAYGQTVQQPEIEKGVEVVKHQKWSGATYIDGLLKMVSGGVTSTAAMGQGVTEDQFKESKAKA
Bear in mind: pIC50 is minus log10 of a mol/L concentration; give just that figure.

- CC1=CC[C@H]2C(C)(C)CCC[C@]2(C)[C@H]1C[C@@H](OS(=O)(=O)[O-])[C@H](C)CCC/C(C)=C\Cc1cc(O)ccc1O.[Na+]: 4.28
- O=C(O)CC[N+](=O)[O-]: 5.05

Next, consider the following compound.
Q. Bench note: what pIC50 did CC1(C)CCC[C@]2(C)[C@H]3CC/C(=C\OS(=O)(=O)[O-])[C@H](CCc4ccoc4)[C@@]3(C)CC[C@@H]12.[Na+] [SUVANINE'S SODIUM SALT] show?
A. 5.30

* * *

Tested on: Salmonella typhimurium
Assay: Antimicrobial activity against Salmonella Typhimurium ATCC 14028
Format: functional, Salmonella enterica subsp. enterica serovar Typhimurium
Conditions: Salmonella enterica
measured attribute: MIC

Some molecules with known MIC results, for comparison:
* CO[C@@H]1C=C(CC[C@H]2/C(=C/OS(=O)(=O)[O-])CC[C@H]3[C@]2(C)CC[C@H]2C(C)(C)CCC[C@]32C)C(=O)O1.[Na+] | > 100 µg/mL
* CC1(C)CCC[C@]2(C)[C@H]3CC/C(=C\OS(=O)(=O)[O-])[C@H](CCC4=CCNC4=O)[C@@]3(C)CC[C@@H]12.[Na+] | > 100 µg/mL
* CC1(C)S[C@@H]2[C@H](NC(=O)[C@H](N)c3ccccc3)C(=O)N2[C@H]1C(=O)O | 0.39 µg/mL
* CC1=CCC[C@@H](C)[C@]1(C)CC/C(C)=C/CCC(CCCc1ccoc1)COS(=O)(=O)[O-].[Na+] (stereo partly specified) [HALISULFATE 2] | > 100 µg/mL
* CC1=CC[C@H]2C(C)(C)CCC[C@]2(C)[C@H]1C/C=C(/C)CCC/C(C)=C/Cc1cc(O)ccc1O | 25 µg/mL

Next, consider the following molecule.
Q. Bench note: what MIC did CC1(C)CCC[C@]2(C)[C@H]3CC/C(=C\OS(=O)(=O)[O-])[C@H](CCc4ccoc4)[C@@]3(C)CC[C@@H]12.[Na+] [SUVANINE'S SODIUM SALT] show?
A. 50 µg/mL

* * *

Measured MIC of individual entries
System: Micrococcus luteus
Assay: Antimicrobial activity against Micrococcus luteus IFO 12708
Assay type: functional

* CC1(C)CCC[C@]2(C)[C@H]3CC/C(=C\OS(=O)(=O)[O-])[C@H](CCC4=CCNC4=O)[C@@]3(C)CC[C@@H]12.[Na+] | > 100 µg/mL
* CO[C@@H]1O[C@H](OC)[C@](O)(CC[C@H]2/C(=C/OS(=O)(=O)[O-])CC[C@H]3[C@]2(C)CC[C@H]2C(C)(C)CCC[C@]32C)[C@H]1O.[Na+] | > 100 µg/mL

Q. Bench note: what MIC did CC1(C)CCC[C@]2(C)[C@H]3CC/C(=C\OS(=O)(=O)[O-])[C@H](CCC4=CC(=O)OC4)[C@@]3(C)CC[C@@H]12.[Na+] show?
A. > 100 µg/mL

Q. Bench note: what MIC did CC1=CC[C@H]2C(C)(C)CCC[C@]2(C)[C@H]1C[C@@H](OS(=O)(=O)[O-])[C@H](C)CCC/C(C)=C\Cc1cc(O)ccc1O.[Na+] show?
A. > 100 µg/mL

Q. Bench note: what MIC did CC1=CC[C@H]2C(C)(C)CCC[C@]2(C)[C@H]1C/C=C(/C)CCC/C(C)=C/Cc1cc(O)ccc1O show?
A. 25 µg/mL

Q. Bench note: what MIC did CC1(C)S[C@@H]2[C@H](NC(=O)[C@H](N)c3ccccc3)C(=O)N2[C@H]1C(=O)O show?
A. 0.39 µg/mL

Where do the numbers come from? From ChEMBL document CHEMBL1817623.
